test system: Malme-3M; assay: NCI tumour cell line growth inhibition, 48 h
Active and inactive are the calls of the source. No stated cut-off is given here; in the data, active = GI50 up to about 1.1 µM and inactive = higher.
Each entry below carries its recorded GI50.
experimental_readout: GI50

{"molecule": "Cc1cc(C)c2c(=O)cc(-c3ccccc3)[nH]c2c1", "meas_value": "2.71 µM (inactive)"}
{"molecule": "COc1ccc(-n2c3c(c4cc(O)ccc42)C(=O)c2ccccc2C3=O)cc1", "meas_value": "36.2 µM (inactive)"}
{"molecule": "CSc1ccc(/C=C2\\N=C(c3ccccc3)N(NC(=O)c3c(Cl)c(Cl)c(Cl)c(Cl)c3-c3nc4ccccc4[nH]3)C2=O)cc1", "meas_value": "30.1 µM (inactive)"}
{"molecule": "CC1=C(O)C(=O)c2cn(C)cc2C1=O", "meas_value": "> 100 µM (inactive)"}
{"molecule": "COC(=O)C1=NN2c3ccccc3C(=O)OCCC2C1 (stereo not drawn)", "meas_value": "> 100 µM (inactive)"}
{"molecule": "COC(=O)Cc1c(-c2[nH]c3ccccc3c2CC(=O)OC)[nH]c2ccccc12", "meas_value": "> 55.6 µM (inactive)"}
{"molecule": "CC1(C)N=C(/C=N/O)C(C)(C)N1O", "meas_value": "> 100 µM (inactive)"}
{"molecule": "CC12CC/C(=N/NC(N)=O)C3C1CCCC32", "meas_value": "> 100 µM (inactive)"}
{"molecule": "Cc1cc(=O)oc2c(C)c(OCCCOc3ccc4c(C)cc(=O)oc4c3C)ccc12", "meas_value": "> 100 µM (inactive)"}
{"molecule": "CC(C)C1C(=O)N(c2c(F)c(F)c(F)c(F)c2F)C(=S)N1CC[S+]([O-])c1ccccc1 (stereo not drawn)", "meas_value": "15.7 µM (inactive)"}
{"molecule": "CP(C)(=S)P(C)(C)=S", "meas_value": "> 100 µM (inactive)"}
{"molecule": "NCCCCN(CCCN)Cc1ccc2ccccc2c1", "meas_value": "51.8 µM (inactive)"}
{"molecule": "COC(=O)C(=O)C(C(=O)C(=O)Nc1ccc(Cl)c(Cl)c1)c1nc2ccc(C(=O)c3ccccc3)cc2nc1O (stereo not drawn)", "meas_value": "73.8 µM (inactive)"}

Ref: ChEMBL document CHEMBL1201862
